- Test system: HT29
- procedure-details: Microculture tetrazolium assay
- Type: cell-based
- setup-conditions: HT29; read-out: IC50
pIC50: −log10 of the molar value.
Decide using pIC50: a value greater than or equal to 5 is T, a smaller one is F.

Record excerpt, results attached:
Hi, just wondering whether CC(=O)[C@@H]1CC2=C(C(=O)c3cc4ccccc4c(O)c3C2=O)[C@H](OC[C@@H]2COC(C)(C)O2)S1 shows pIC50 of 5 or higher. T

Is the recorded value of pIC50 equal to or greater than 5 for this compound? CC[C@H]1CC2=C(C(=O)c3cc4ccccc4c(O)c3C2=O)[C@H](O[C@H]2C[C@H](NC(=O)C(F)(F)F)[C@H](O)[C@H](C)O2)O1 T

Has CC(=O)[C@H]1CC2=C(C(=O)c3cc4ccccc4c(O)c3C2=O)[C@@H](OC[C@@H]2COC(C)(C)O2)S1 a recorded pIC50 greater than or equal to 5? T

Evaluate CC(=O)Oc1c2c(c(O)c3ccccc13)C(=O)C1=C(CC(C(C)=O)OC1)C2=O (stereo not shown) : pIC50 at minimum 5? F

Determine whether this compound has pIC50 no lower than 5: CC(=O)OCC1(C2CC3=C(C(=O)c4c(cc5ccccc5c4OC(C)=O)C3=O)C(O)O2)OCCCO1 (stereo not shown) T

In the following, a different compound is considered.
Exam item: decide whether the reported pIC50 for CC(=O)OCC1(C2CC3=C(C(=O)c4cc5ccccc5c(OC(C)=O)c4C3=O)C(O)O2)OCCCO1 (stereo not shown) is at least 5. T

* * *

- Tested on: T47D
- procedure-details: Microculture tetrazolium assay
- Type: cell-based
- setup-conditions: Homo sapiens, read-out: IC50
reported-endpoint: pIC50
Reminder that pIC50 means the negative base-10 logarithm of the concentration expressed in mol/L.

Check out these entries, answers already filled in.
pIC50 measured on CC[C@@H]1CC2=C(C(=O)c3cc4ccccc4c(O)c3C2=O)[C@@H](O)O1 (relative stereo) [BCH-1162] = 5.59

Lookup result for CC[C@@H]1Cc2c(O)c3c(c(O)c2[C@@H](O[C@H]2C[C@H](N)[C@H](O)[C@H](C)O2)O1)C(=O)c1ccccc1C3=O [BCH-2016] ; measured pIC50: 6.46

Next:
For C[C@@H]1O[C@@H](O[C@H]2O[C@H](C(=O)COC(=O)C(C)(C)C)CC3=C2C(=O)c2cc4ccccc4c(O)c2C3=O)C[C@H](NC(=O)C(F)(F)F)[C@@H]1O [BCH-1136] the molecule record lists pIC50 as 4.72

The molecule identified as CC(=O)C1CC2=C(C(=O)c3cc4ccccc4c(O)c3C2=O)C(OCCN)S1 (centres unmarked) [BCH-1628] registered its pIC50 at 5.54

Lab note: measured pIC50 of CC1(C2CC3=C(CO2)C(=O)c2c(cc4ccccc4c2O)C3=O)OCCO1 (centres unmarked) [BCH-1112] was 5.04

// recorded pIC50 for COC(=O)[C@@H]1CC2=C(C(=O)c3c(cc4ccccc4c3O)C2=O)[C@@H](O[C@H]2C[C@H](NC(=O)C(F)(F)F)[C@H](O)[C@H](C)O2)O1 [BCH-691] : 5.65

Just so you know, measured pIC50 for CC(=O)[C@H]1CC2=C(C(=O)c3cc4ccccc4c(O)c3C2=O)[C@H](O[C@H]2C[C@H](NC(=O)C(F)(F)F)[C@H](O)[C@H](C)O2)O1 [BCH-724] came out at 5.41

Measured pIC50 of COCC1(COC)CC2=C(C(=O)c3cc4ccccc4c(O)c3C2=O)[C@H](O[C@H]2C[C@H](NC(=O)C(F)(F)F)[C@H](O)[C@H](C)O2)O1 [BCH-1698] : 6.14

* * *

- Test system: MCF7
- procedure-details: Soft agar colony formation disk diffusion assay
- Type: cell-based, human
- setup-conditions: 100 μg/DISK
Lab note: compare zone of inhibition against 100 Zone Units. Equal or greater, write true (1). Smaller, write false (0).

Some solved entries appear below for comparison.
Can COC(=O)[C@H]1CC2=C(C(=O)c3c(c(OC)c4ccccc4c3O)C2=O)[C@H](O[C@H]2C[C@H](NC(=O)C(F)(F)F)[C@H](O)[C@H](C)O2)O1 (mixture of isomers) [BCH-675] be said to have zone of inhibition at or above 100 Zone Units? false (0)

Would you say CCOC(=O)C1CC2=C(CO1)C(=O)c1cc3ccccc3c(O)c1C2=O (centres unmarked) [BCH-653] shows zone of inhibition at minimum 100 Zone Units? true (1)

Is zone of inhibition at least 100 Zone Units? Consider COCOCC(=O)C1CC2=C(CO1)C(=O)c1c(cc3ccccc3c1O)C2=O (centres unmarked) [BCH-714] false (0)

Next:
hey, is zone of inhibition for this one >= 100 Zone Units? CCOC(=O)C1CC2=C(CO1)C(=O)c1c(c(O)c3ccccc3c1OC(C)=O)C2=O (centres unmarked) [BCH-654] true (1)

Evaluate COC(=O)[C@@H]1CC2=C(C(=O)c3c(c(OC)c4ccccc4c3O)C2=O)[C@@H](O[C@H]2C[C@H](NC(=O)C(F)(F)F)[C@H](O)[C@H](C)O2)O1 (mixture of isomers) [BCH-674] : zone of inhibition at minimum 100 Zone Units? false (0)

Given COC(=O)[C@H]1CC2=C(C(=O)c3cc4ccccc4c(O)c3C2=O)[C@H](O[C@H]2C[C@H](NC(=O)C(F)(F)F)[C@H](O)[C@H](C)O2)O1 [BCH-706] , state whether its zone of inhibition is at least 100 Zone Units. true (1)

// inclusive: zone of inhibition at least 100 Zone Units? input: CCOC(=O)[C@@H]1CC2=C(C(=O)c3cc4ccccc4c(OC(C)=O)c3C2=O)[C@@H](O)O1 (mixture of isomers) [BCH-660] false (0)

* * *

- System: SKVLB
- procedure-details: Microculture tetrazolium assay
- Type: cell-based
- setup-conditions: IC50 ratio SKVLB/SKOV3
Structures can show the parent of a compound that is named as a salt.
Output met for VLB/OV3 not less than 3; output not met otherwise.

Has CC(=O)CC1CC2=C(C(=O)c3cc4ccccc4c(O)c3C2=O)C(O[C@H]2C[C@H](N)[C@H](O)[C@H](C)O2)O1 (mixture of isomers) [BCH-2111, hydrochloride] a recorded VLB/OV3 greater than or equal to 3? met

Record COC[C@@H]1CC2=C(C(=O)c3cc4ccccc4c(O)c3C2=O)[C@@H](O[C@H]2C[C@H](NC(=O)C(F)(F)F)[C@H](O)[C@H](C)O2)O1 [BCH-1694] ; criterion: VLB/OV3 no lower than 3. Met? met

Threshold query (VLB/OV3 >= 3) on CCOC(=O)C1CC2=C(CO1)C(=O)c1c(cc3ccccc3c1O)C2=O (stereo not shown) [BCH-651] not met

Could you tell me if the measured VLB/OV3 of CC(=O)[C@@H]1Cc2c(O)c3c(c(O)c2[C@@H](O[C@@H]2O[C@@H](C)[C@@H](O)[C@@H](NC(=O)C(F)(F)F)C2I)O1)C(=O)c1ccccc1C3=O (stereo partly shown) [BCH-2063] reaches 3 or more? met

Is VLB/OV3 for CC(=O)C1CC2=C(C(=O)c3cc4ccccc4c(O)c3C2=O)C(O[C@H]2C[C@H](NC(=O)C(F)(F)F)[C@@H](O)[C@H](C)O2)O1 (stereo partly shown) [BCH-1637] at or above 3? not met

Decide: is the reported value of VLB/OV3 for CC(=NO)[C@H]1Cc2c(O)c3c(c(O)c2[C@H](O[C@H]2C[C@H](N)[C@H](O)[C@H](C)O2)O1)C(=O)c1ccccc1C3=O [BCH-2074, hydrochloride] equal to or greater than 3? met

Moving on to another compound below.
State whether the measured VLB/OV3 reaches 3, counting equality as reaching it, for C=CC1CC2=C(C(=O)c3cc4ccccc4c(O)c3C2=O)C(O[C@H]2C[C@H](NC(=O)C(F)(F)F)[C@H](O)[C@H](C)O2)O1 (stereo partly shown) [BCH-1168] not met

* * *

- Tested on: SKVLB
- procedure-details: Microculture tetrazolium assay
- Format: cell-based
- setup-conditions: IC50 ratio SKVLB/SKOV3
// reported VLB/OV3 per item
Number only, no unit.

The value of VLB/OV3 recorded for C[C@@H]1O[C@@H](O[C@@H]2O[C@@H](COc3ccccc3)CC3=C2C(=O)c2cc4ccccc4c(O)c2C3=O)C[C@H](NC(=O)C(F)(F)F)[C@@H]1O when tested on SKVLB reads 5.01

Test item CC(=O)C1CC2=C(C(=O)c3cc4ccccc4c(O)c3C2=O)C(OC[C@@H](O)CO)O1 (stereo partly shown) ; SKVLB; reported VLB/OV3 was 2.54

Record CC(=O)[C@H]1Cc2c(O)c3c(c(O)c2[C@H](O[C@H]2C[C@H](O)[C@H](O)[C@H](C)O2)O1)C(=O)c1ccccc1C3=O has SKVLB VLB/OV3 equal to 8.8

Param item: CCOC(=O)C1CC2=C(CO1)C(=O)c1c(c(O)c3ccccc3c1OC(C)=O)C2=O (stereo not shown) ; param system: SKVLB; output VLB/OV3: 0.58
